target: G-protein coupled bile acid receptor 1 (Homo sapiens, UniProt Q8TDU6); assay: Agonist activity at GP-BAR1 (unknown origin) in human HEK293 cells assessed as receptor transactivation at 100 nM to 50 uM […] by CRE-driven luciferase reporter gene assay; type: functional, cell-based; conditions: read-out: EC50
Sequence (Q8TDU6 whole entry): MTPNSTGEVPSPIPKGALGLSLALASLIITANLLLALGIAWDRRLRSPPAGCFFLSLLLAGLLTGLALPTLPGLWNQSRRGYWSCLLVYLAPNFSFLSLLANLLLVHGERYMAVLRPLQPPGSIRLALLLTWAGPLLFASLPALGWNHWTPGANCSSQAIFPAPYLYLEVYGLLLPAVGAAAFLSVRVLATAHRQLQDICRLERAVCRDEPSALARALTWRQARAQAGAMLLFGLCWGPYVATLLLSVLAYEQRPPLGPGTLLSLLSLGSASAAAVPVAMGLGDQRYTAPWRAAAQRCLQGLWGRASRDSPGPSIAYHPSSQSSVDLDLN
measured-property: pEC50
Just so you know, pEC50 here is -log10 of the concentration in molar units; reply with that number alone.

Entry `CC[C@@H]1[C@H](O)[C@@H]2[C@H](CC[C@]3(C)[C@@H]([C@H](C)CCCO)CC[C@@H]23)[C@@]2(C)CC[C@@H](O)C[C@@H]12` , pEC50 reported as 5.99

====

Molecular target: UniProt:Q96RI1
Sequence (Q96RI1 whole entry): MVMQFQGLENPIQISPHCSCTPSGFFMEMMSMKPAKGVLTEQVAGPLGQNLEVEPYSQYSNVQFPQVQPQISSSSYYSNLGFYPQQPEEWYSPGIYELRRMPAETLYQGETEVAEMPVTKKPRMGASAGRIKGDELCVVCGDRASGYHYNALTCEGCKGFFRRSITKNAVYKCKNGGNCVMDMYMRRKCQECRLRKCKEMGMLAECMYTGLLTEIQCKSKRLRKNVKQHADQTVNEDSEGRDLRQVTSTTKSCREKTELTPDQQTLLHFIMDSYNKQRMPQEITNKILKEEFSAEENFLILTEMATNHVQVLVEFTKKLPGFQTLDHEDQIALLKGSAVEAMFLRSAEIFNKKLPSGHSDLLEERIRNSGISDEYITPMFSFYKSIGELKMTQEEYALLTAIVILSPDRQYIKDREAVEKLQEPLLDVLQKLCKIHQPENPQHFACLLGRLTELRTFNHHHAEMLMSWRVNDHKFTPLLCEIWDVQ
Experiment: Agonist activity at FXR (unknown origin) expressed in human HepG2 cells assessed as receptor transactivation at 100 nM to 50 uM […] by FXR response element driven HSP27-TK-luciferase reporter gene assay
Format: cell-based
Details: read-out: EC50
measured-property: EC50
A complete answer gives the number and then names the unit.

Item: `C[C@H](CCCOS(=O)(=O)[O-])[C@H]1CC[C@H]2[C@@H]3[C@H](O)C[C@@H]4CCCC[C@]4(C)[C@H]3CC[C@]12C.[Na+]` | EC50: 9 µM
